TESTED_ON: HLA-A*2401 (human)
PROTOCOL_DESCRIPTION: inhibition of 125I-labelled standard peptide binding to purified HLA, gel filtration
PROPERTY_NAME: relative binding ratio (IC50 of standard peptide / IC50 of test peptide)

BINDER: RFVVIQNEDL [HER2/neu peptide, position 985, 10 amino acids]
MEASURED: 0.0002

BINDER: SYMPIWKF [HER2/neu peptide, position 609, 8 amino acids]
MEASURED: 0.32

BINDER: RYSEDPTVPL [HER2/neu peptide, position 1111, 10 amino acids]
MEASURED: 0.012

BINDER: RFRELVSEF [HER2/neu peptide, position 968, 9 amino acids]
MEASURED: 0.018

BINDER: SYGVTVWEL [HER2/neu peptide, position 907, 9 amino acids]
MEASURED: 0.12

BINDER: RMARDPQRF [HER2/neu peptide, position 978, 9 amino acids]
MEASURED: 0.0032

BINDER: RWGLLLALL [HER2/neu peptide, position 8, 9 amino acids]
MEASURED: 1.3
